# Tested on: SK-MEL-28
# assay-comment: NCI tumour cell line growth inhibition, 48 h
Calls of active or inactive are those of the source. Cut-off read from the data, not from the text of the source: active = GI50 up to about 1.1 µM and inactive = higher.
Classes used: active, inactive

compound | class-label
COc1ccc(C2SCC(=O)N2NC(=O)C(C)Oc2ccc(Cl)cc2Cl)cc1 (stereo unspecified) | inactive
COc1cc([C@@H]2c3cc4c(cc3[C@@H](OC3OC5COC(C)OC5C(O)C3O)[C@H]3COC(=O)[C@H]23)OCO4)cc(OC)c1O (stereo partly specified) | inactive
Cc1cccc2c1CC1(Cc3ccccc3C1=O)C2=O (stereo unspecified) | inactive
COCC1OC(OC2OCC3OC4(OCC(O)(C(C)OC)C5OCOC54)OC3C2OC)C(OC)C(O)C1OC1OC(C)C(OC)C(OC2OC(C)C3OC4(CC(O)C(OC5CC(OC6CC(C)([N+](=O)[O-])C(OC)C(C)O6)C(OC(=O)c6c(C)c(Cl)c(O)c(Cl)c6OC)C(C)O5)C(C)O4)OC3(C)C2O)C1O (stereo unspecified) | inactive
CN1C2CC(=O)CC1[C@@H]1OC(c3ccccc3)O[C@H]21 (stereo partly specified) | inactive
COC(=O)C(Cc1cc(OC)c(OC)c(OC)c1)(NC(=O)c1ccccc1)P(=O)(OC)OC (stereo unspecified) | inactive
COc1ccc([C@H](NC(=O)c2ccccc2)[C@@H](O)C(=O)O[C@H]2C[C@@]3(O)C(OC(=O)c4ccccc4)C4[C@](C)(C(=O)[C@H](OC(C)=O)C(=C2C)C3(C)C)[C@@H](O)C[C@H]2OC[C@@]42OC(C)=O)cc1 (stereo partly specified) | active
CCOP(=O)(OCC)/C(C#N)=C/c1cccn1N(C)C | inactive
Cc1cc(=O)n2nc(CSc3nnc(N)s3)sc2n1 | inactive
COc1ccc(CNc2cc(=O)n(C)c(=O)[nH]2)cc1 | inactive
COc1ccccc1C[C@@H]1OC2(C=CC(=O)CC2SC(=O)c2ccccc2)O[C@H]1Cc1ccccc1OC (stereo partly specified) | inactive

* * *

# Test system: SF-539
# assay-comment: NCI tumour cell line growth inhibition, 48 h
The source made the active and inactive calls. Rule as the data show it: active = GI50 up to about 1.1 µM and inactive = higher.
Classes used: active, inactive

compound | class-label
CN1CC(c2ccccc2)C(O)(C2(c3ccccc3)CN(C)CC(c3ccccc3)C2=O)C(c2ccccc2)C1 (stereo not drawn) | inactive
O=c1onc2c3ccccc3ncn12 | inactive
CCOc1ccc(N/C(=C(/C(Cl)=C(/Cl)N(CC)CC)[N+](=O)[O-])n2nnc3ccccc32)cc1 | inactive
Cc1n[nH]c(=O)c2cc(-c3ccccc3)[nH]c12 | inactive
Cc1c(C)c2c(c(N)c1C#N)C(=O)N(CCc1ccccc1)C2=O | inactive
CCCCCCCCCCCCCCCC(=O)OCC(C[As](=O)(O)O)OC(=O)CCCCCCCCCCCCCCC (stereo not drawn) | inactive
CC(=O)Oc1ccc2c(c1)c1c(=O)oc(N(C)C)nc1n2Cc1ccccc1 | inactive
O=C1CCCC1CC(CN1CCOCC1)Sc1nnnn1-c1ccccc1 (stereo not drawn) | inactive
Cc1ccc2nc(Cl)c(/C=N/N3C(=O)/C(=C/c4ccccc4S)N=C3c3ccccc3)cc2c1 | inactive
COc1ccc(/C=C(\NC(=O)c2ccccc2)C(=O)NN(C)c2ccnc3cc(Cl)ccc23)cc1OC | inactive
[N-]=[N+]=NI1OC(=O)c2ccccc21 | inactive
CO[C@]12C[C@H](CNC(=O)c3cc(Br)c(Br)[nH]3)O[C@H]1NC(=O)N2 | inactive
CCC(c1nc2ccccc2c(=O)n1NC(=O)C(C)(C)C)C1(O)CCCCC1 (stereo not drawn) | inactive
CCC(C)C1NC(=O)CNC(=O)C2Cc3c([nH]c4cc(O)ccc34)[S+]([O-])CC(NC(=O)CNC1=O)C(=O)NC(CC(=O)O)C(=O)N1CC(O)CC1C(=O)NC(C(C)C(O)CO)C(=O)N2 (stereo not drawn) | active
O=C1c2cc3c(cc2[C@@H]2NC4CCCC14O2)OCO3 (stereo partly drawn) | inactive
O=C1OC2(OC2c2ccccc2)c2ccccc21 (stereo not drawn) | inactive
CC(=O)NC1C(O)CC(OCCCSCCN)(C(=O)O)OC1C(O)C(O)CO (stereo not drawn) | inactive
Cc1cc(=O)n2nc(CSc3nnc(N)s3)sc2n1 | inactive

* * *

# Tested on: 786-0
# assay-comment: NCI tumour cell line growth inhibition, 48 h
The source made the active and inactive calls. Rule as the data show it: active = GI50 up to about 1.1 µM and inactive = higher.
measurement-type: GI50

compound | result
O=c1onc2c3ccccc3ncn12 | > 100 µM (inactive)
CCOC(=O)NC(OCCN(C)C)(C(F)(F)F)C(F)(F)F | > 100 µM (inactive)
CCCCCCCCCCCCCCCCNC(=O)/C(O)=C/C(=O)c1ccc(C)cc1 | > 10 µM (inactive)
CC1(c2cccc(C3CCC4(C=CC3=O)OCCO4)c2)OCCO1 (stereo not given) | 4.62 µM (inactive)
O=c1ssc2c1Nc1c(ssc1=O)S2 | 3.87 µM (inactive)

* * *

Listed compounds paired with reported GI50
# Test system: RPMI-8226
# assay-comment: NCI tumour cell line growth inhibition, 48 h
Activity calls are given as the source filed them. No stated cut-off is given here; in the data, active = GI50 up to about 1.1 µM and inactive = higher.

compound | system-under-test | GI50
COc1ccc2oc(=N)c(C(=O)Nc3ccccc3)cc2c1 | RPMI-8226 | 15.7 µM (inactive)
Cc1[nH]c2ccccc2c1C1Cc2ccccc2N1C(=O)C#Cc1ccc([N+](=O)[O-])cc1 (stereo not drawn) | RPMI-8226 | 76 µM (inactive)
CC(C)OC(=S)Nc1ccc(Cl)c(/C=N/OC(C)(C)C)c1 | RPMI-8226 | 18.1 µM (inactive)

* * *

# Tested on: Hs-578T
# assay-comment: NCI tumour cell line growth inhibition, 48 h
Calls of active or inactive are those of the source. No stated cut-off is given here; in the data, active = GI50 up to about 1.1 µM and inactive = higher.
Listed compounds paired with reported GI50

compound | system-under-test | GI50
O=c1ccc2c(Cl)sc(Cl)c2[nH]1 | Hs-578T | 35.2 µM (inactive)
O=[N+]([O-])c1ccc(Oc2c(Cl)cc(S(=O)(=O)N/C(=N\O)Nc3ccc(Cl)cc3)cc2Cl)cc1 | Hs-578T | 14.6 µM (inactive)
CN(C)CCCn1cnc2cc(Cl)c(Cl)cc21 | Hs-578T | > 100 µM (inactive)
c1csc(-c2csc(-c3ccsc3)c2)c1 | Hs-578T | > 100 µM (inactive)
Cc1cc(NS(=O)(=O)c2ccc(NC(NC(=O)C(C(F)(F)F)C(F)(F)F)(C(F)(F)F)C(F)(F)F)cc2)no1 | Hs-578T | > 100 µM (inactive)
COc1ccc(/N=N/C(=N\c2ccccc2)c2ccc(N(CCC#N)CCC#N)cc2)cc1 | Hs-578T | 45.8 µM (inactive)
CCc1nc(N)nc(N)c1-c1ccc(N2CCNCC2)c([N+](=O)[O-])c1 | Hs-578T | 18.5 µM (inactive)
c1ccc(CCNCc2ccco2)nc1 | Hs-578T | > 100 µM (inactive)
C=C(CCOC)CCC1CCCCC(CN(C)C)C1=O (stereo not drawn) | Hs-578T | > 100 µM (inactive)
Nc1cc2ncnc(Nc3cccc(Br)c3)c2cn1 | Hs-578T | 33.7 µM (inactive)
Cc1c(OCc2cccc3ccccc23)ccc2c(O)cc(=S)oc12 | Hs-578T | 34.8 µM (inactive)
C[C@]12CC[C@H](O)CC1=CC[C@@H]1[C@@H]2CC[C@]2(C)c3nc(Cl)ccc3C[C@@H]12 | Hs-578T | 35.2 µM (inactive)
NNC(=O)Cc1cccnc1 | Hs-578T | > 100 µM (inactive)
NNC(=O)c1ccccc1NC(=O)/C(=C/c1ccccc1O)NC(=O)c1ccccc1 | Hs-578T | 14.7 µM (inactive)
O=C(O[C@H](/C=C/c1ccccc1)P1(=O)N(Cc2ccccc2)[C@@H]2CCCC[C@H]2N1Cc1ccccc1)c1ccccc1 | Hs-578T | 6.93 µM (inactive)
NC(=O)c1csc(C2(O)COC(CO)C2O)n1 (stereo not drawn) | Hs-578T | > 100 µM (inactive)
Nc1ncnc2c1ncn2CCCCC(=O)O | Hs-578T | > 100 µM (inactive)
COc1cc(/C=C2/SC(c3ccccc3)N(c3cccc([N+](=O)[O-])c3)C2=O)cc(OC)c1OC (stereo not drawn) | Hs-578T | > 100 µM (inactive)
Cc1cn([C@H]2C[C@@H](N3C(=O)c4ccccc4C3=O)[C@@H](CO[Si](C)(C)C(C)(C)C)O2)c(=O)[nH]c1=O | Hs-578T | 21.2 µM (inactive)
COc1ccccc1C[C@@H]1OC2(C=CC(=O)CC2SC(=O)c2ccccc2)O[C@H]1Cc1ccccc1OC (stereo partly drawn) | Hs-578T | 1.25 µM (inactive)
Cc1ccc(/N=N/C(=N/NC(=O)c2cc(Cl)ccc2C(=O)c2ccccc2)c2ccc(N(CCC#N)CCC#N)cc2C)cc1 | Hs-578T | 27.2 µM (inactive)
CO[C@]12C[C@H](CNC(=O)c3cc(Br)c(Br)[nH]3)O[C@H]1NC(=O)N2 | Hs-578T | > 100 µM (inactive)
N#CC(NNC(=O)c1c(Cl)c(Cl)c(Cl)c(Cl)c1-c1nc2cc(C(=O)c3ccccc3)ccc2[nH]1)c1ccccc1 (stereo not drawn) | Hs-578T | 6.78 µM (inactive)
